measured-target: BChE from equine serum (Equus caballus, UniProt P81908)
Construct: BChE from equine serum; purchased Sigma-Aldrich Co., St. Louis, USA; host or cells: equine serum
Sequence (P81908 whole entry): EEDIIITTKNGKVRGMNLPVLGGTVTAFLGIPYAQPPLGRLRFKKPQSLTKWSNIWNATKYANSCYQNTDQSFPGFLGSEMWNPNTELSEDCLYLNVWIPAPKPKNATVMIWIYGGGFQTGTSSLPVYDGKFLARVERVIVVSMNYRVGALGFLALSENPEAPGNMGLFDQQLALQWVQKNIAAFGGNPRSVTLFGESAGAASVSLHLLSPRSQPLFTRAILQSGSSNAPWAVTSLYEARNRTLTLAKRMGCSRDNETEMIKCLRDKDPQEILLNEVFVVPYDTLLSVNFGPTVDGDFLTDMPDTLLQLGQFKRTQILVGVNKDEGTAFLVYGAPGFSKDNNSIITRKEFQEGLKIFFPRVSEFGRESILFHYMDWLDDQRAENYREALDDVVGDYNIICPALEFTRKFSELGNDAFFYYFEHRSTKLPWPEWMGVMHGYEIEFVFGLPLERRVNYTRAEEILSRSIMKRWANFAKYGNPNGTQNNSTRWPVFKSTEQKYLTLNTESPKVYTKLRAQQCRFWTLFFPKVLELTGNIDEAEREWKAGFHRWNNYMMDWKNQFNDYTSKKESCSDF
assay-remarks: biochemical
Type: biochemical
protocol-conditions: isolated compounds; mean ± SD, n = 3; ND = no detection using test concentration; read-out: IC50 BChE
pIC50: −log10 of the molar value.
Kind request: treat 4 as inclusive, so pIC50 at 4 or higher is condition met, anything lower is condition not met.

compound: O=c1c(O[C@@H]2O[C@H](CO)[C@@H](O)[C@H](O)[C@H]2O)c(-c2ccc(O)cc2)oc2cc(O[C@@H]3O[C@@H](CO)[C@H](O)[C@H]3O)cc(O)c12
category: condition met

compound: O=C(O)/C=C/c1ccc(O[C@@H]2O[C@H](CO)[C@@H](O)[C@H](O)[C@H]2O)c(O)c1 [Compound 2, caffeic acid 4-O-β-D-glucopyranoside]
category: condition not met

compound: C[C@@H]1O[C@@H](O[C@H]2[C@H](Oc3cc(O)c4c(=O)ccoc4c3)O[C@H](CO)[C@@H](O)[C@@H]2O)[C@H](O)[C@H](O)[C@H]1O
category: condition met

compound: COc1cc(/C=C/C(=O)O)cc(OC)c1O[C@@H]1O[C@H](CO)[C@@H](O)[C@H](O)[C@H]1O [Compound 4, trans-p-sinapoyl-β-D-glucopyranoside]
category: condition met

compound: C[C@@H]1O[C@@H](Oc2c(-c3ccc(O)cc3)oc3cc(O[C@@H]4O[C@H](CO)[C@@H](O)[C@H](O)[C@H]4O)cc(O)c3c2=O)[C@H](O)[C@H](O)[C@H]1O [Compound 6, kaempferol 3-O-rhamnoside 7-O-glucoside]
category: condition met

compound: O=C(O)/C=C/c1ccc(O[C@@H]2O[C@H](CO)[C@@H](O)[C@H](O)[C@H]2O)cc1 [Compound 1, coumaric acid 4-O-β-D-glucopyranoside]
category: condition met

The values you see were collected from paper PMC11358882.
